These measurements were taken from the kinase profiling compilation of Christmann-Franck et al. (2016).

molecular target: EPHA5 (human) (UniProt P54756); assay: radiometric filter-binding kinase assay, Kinase HotSpot; details: compound 0.5 µM; ATP 10 µM
Sequence (P54756 whole entry, looked up): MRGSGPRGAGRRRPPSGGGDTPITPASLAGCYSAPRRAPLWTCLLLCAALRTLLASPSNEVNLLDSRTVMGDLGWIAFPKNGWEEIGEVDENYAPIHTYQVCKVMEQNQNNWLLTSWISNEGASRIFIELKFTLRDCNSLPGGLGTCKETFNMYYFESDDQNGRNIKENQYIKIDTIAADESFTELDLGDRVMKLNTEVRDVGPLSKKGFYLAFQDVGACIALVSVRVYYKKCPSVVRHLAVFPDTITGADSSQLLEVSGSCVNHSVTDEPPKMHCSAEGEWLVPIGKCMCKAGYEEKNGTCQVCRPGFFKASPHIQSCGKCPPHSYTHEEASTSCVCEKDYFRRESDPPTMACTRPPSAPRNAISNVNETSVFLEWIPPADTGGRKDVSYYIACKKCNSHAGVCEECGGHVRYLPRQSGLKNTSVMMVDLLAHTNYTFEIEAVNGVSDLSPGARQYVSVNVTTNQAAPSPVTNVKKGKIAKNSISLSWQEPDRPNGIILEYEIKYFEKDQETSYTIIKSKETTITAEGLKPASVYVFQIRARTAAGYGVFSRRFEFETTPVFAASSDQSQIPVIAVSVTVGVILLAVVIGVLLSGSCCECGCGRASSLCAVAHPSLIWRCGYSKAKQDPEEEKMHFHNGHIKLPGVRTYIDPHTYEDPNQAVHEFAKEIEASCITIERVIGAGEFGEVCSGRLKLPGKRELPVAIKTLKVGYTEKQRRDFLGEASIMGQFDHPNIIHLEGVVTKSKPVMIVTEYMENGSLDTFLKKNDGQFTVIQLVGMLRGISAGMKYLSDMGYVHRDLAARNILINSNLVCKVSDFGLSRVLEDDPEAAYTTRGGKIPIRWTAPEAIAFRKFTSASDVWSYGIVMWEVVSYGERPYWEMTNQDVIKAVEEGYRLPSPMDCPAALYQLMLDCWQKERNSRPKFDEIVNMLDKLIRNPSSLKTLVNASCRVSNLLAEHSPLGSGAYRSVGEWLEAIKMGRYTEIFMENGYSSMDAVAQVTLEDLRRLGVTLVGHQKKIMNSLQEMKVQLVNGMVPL

>  <Molecule>
N#CC(C#N)=C(N)/C(C#N)=C/c1ccc(O)cc1

>  <residual activity [%]>
94.3

$$$$
>  <Molecule>
Cc1ccc(NC2=CC(=O)c3sc(C)nc3C2=O)cc1

>  <residual activity [%]>
98.2

$$$$
>  <Molecule>
CCN(CC)CCNC(=O)c1c(C)[nH]c(/C=C2\C(=O)Nc3ccc(Cl)cc32)c1C

>  <residual activity [%]>
90.4

$$$$
>  <Molecule>
O=c1cc(N2CCOCC2)oc2c1ccc1ccccc12

>  <residual activity [%]>
110

$$$$
>  <Molecule>
CCN(CC)C(=O)c1ccc(Nc2nc(OCC3CCCCC3)c3nc[nH]c3n2)cc1

>  <residual activity [%]>
95

$$$$
>  <Molecule>
CO[C@H]1CC2CC[C@@H](C)[C@@](O)(O2)C(=O)C(=O)N2CCCC[C@H]2C(=O)OC([C@H](C)C[C@@H]2CC[C@@H](O)[C@H](OC)C2)CC(=O)[C@H](C)/C=C(\C)[C@@H](O)[C@@H](OC)C(=O)[C@H](C)C[C@H](C)/C=C/C=C/C=C/1C (stereo partly drawn)

>  <residual activity [%]>
94.7

$$$$
>  <Molecule>
c1ccc(-c2n[nH]c3c2oc2ccccc23)cc1

>  <residual activity [%]>
92.1

$$$$
>  <Molecule>
Cc1[nH]c(/C=C2\C(=O)Nc3ccc(S(=O)(=O)N(C)c4cccc(Cl)c4)cc32)c(C)c1C(=O)N1CCN(C)CC1

>  <residual activity [%]>
96.4

$$$$
